Where do the numbers come from? From the DeepSol protein solubility set.

Assay: soluble on expression in E. coli; label from the status in PepcDB or PDB records
Measurement name: soluble on expression in E. coli

MKKIAIFAGDGIGPEIVAAARQVLDAVDQAAHLGLRCTEGLVGGAALDASDDPLPAASLQLAMAADAVILGAVGGPRWDAYPPAKRPEQGLLRLRKGLDLYANLRPAQIFPQLLDASPLRPELVRDVDILVVRELTGDIYFGQPRGLEVIDGKRRGFNTMVYDEDEIRRIAHVAFRAAQGRRKQLCSVDKANVLETTRLWREVVTEVARDYPDVRLSHMYVDNAAMQLIRAPAQFDVLLTGNMFGDILSDEASQLTGSIGMLPSASLGEGRAMYEPIHGSAPDIAGQDKANPLATILSVAMMLRHSLNAEPWAQRVEAAVQRVLDQGLRTADIAAPGTPVIGTKAMGAAVVNALNLKD = soluble
MERVRRASHAGSWYTNNARKLDEELDGWLRAAGLTKSPDVRAVIAPHAGYSYSGRCAAYAFGNIDPTNISRVFLLGPSHHYYTPKCALTRATIYSTPIGDLPVDHEVIEELNATGKFDFMDLSVDEAEHSMEMHLPYLSKVFQGHNVKVVPILVGALNSQNEAMYGQLLSKYLDDPKNFFSISSDFCHWGTRFSYTYYDKSHGAIHKSIEALDRMGMEIIETGNPDAFKQYLQEYENTICGRHPISVFLSMLKHCLTKIKIGFVRYEQSSQCKSMRDSSVSYASAAAKVDTPAEEEKD = soluble

* * *

Assay: soluble on expression in E. coli; label from the status in PepcDB or PDB records
Measurement name: soluble on expression in E. coli

DSDVEIATIALLDTVQPAHLAPDTKEETVKRWERYSAFAKKTYGLDFPVPYELLETAGEDALLAMMAEFLSTTDATEHGLSAGVLEHQRASFVDNRILDRMDMQRWANVKIPVMLFRAERMHDGAIELEPAYAEIEPDGGWSAIVEDLVIIQLSGDHLAVVDEPEIGKVGVALTNRIEQLQGK = not soluble
MAHHHHHHMYVFRFHISSFHSFLVNFLQPSRGVGEPSRLLDHLETHPSYMRRVTSTAVHRTVSSVLSPALLPSFNGTLLLSVCFASCSAAPVRNLYKRLGLDHKATSEEVKAAYRQRALECHPDVVDDNRKAQAEVDFRAVSEAYDVLIDPQKRKEHDKALGLERTVPPAKKQQEGEGVGCDSKGSFNRGVTRPRNRKPFVRGDADRNFREAFHGMSLDQVLFRERLRQRRMQKQMEEKAKEGDDGSPAGREESIRRVAAAAAERFAEKVRRQYGPGMLRHARVYTSLSRDPQPPPSDYMPFRPFHGWTVPNGVRTPPEPTLGPTAKVEDVKDVQLAEPAVGDASHQRKLPKHFPVVQAPDGSSLLREEAIACMERERRLPHNMGKLYSYHRPY = not soluble

* * *

Assay: soluble on expression in E. coli; label from the status in PepcDB or PDB records
Measurement name: soluble on expression in E. coli

MKIFLDSAITTDIQDRLATEIIDGVTTNPTLIKKSNEDPDVVYKELYDMRVKDISIEVRGDTAQELAANGILYGRKYGEVATIKLPCTVEGIKACKKLSILGHKTNMTLVFSVSQAILCAKAGATYVSPFVGRLDQIGEDGIQLIRDISRVYCVSGVKTQILAASIRSPKQAEDAYLAGADICTLPVKVFDQMFKHTLTDDGLKQFAIDFGINF = not soluble
GEVDMTIRGNITYSKNEVLEKDEENQVYSYLYQKGYRVDQVKGLIAEGLFADYDDIRTSPKQEFGTVQPGDIKYKDVNGDGVVNDNDKVAIGATTTPNLVYGIGASFAWKGIDVNVHFQGAGKSTFPIYGKCVYAFSESDWGNIFKDMISDRWVDSETAAKLGLHANENPNATYPRLTYGENKNNQQTSTYWMRDGRYIRLKNLDIGYTLPKSIVNKLHFNNIRIYIAGSNLITWSKFKTWDPETGNPRGEAYPLTKSVTMGLSVNL = not soluble
MGSDKIHHHHHHMTHQNSPLFLKSALRLYNRASFKASHKVIEEYSTSFSLSTWLLSPRIRNDIRNLYAVVRIADEIVDGTAHAAGCSTAKIEEILDAYEIAVLAAPQQRFNTDLVLQAYGETARRCDFEQEHVIAFFASMRKDLKANTHDPDSFTTYVYGSAEVIGLLCLSVFNQGRTISKKRLEIMQNGARSLGAAFQKINFLRDLAEDQQNLGRFYFPKTSQGTLTKEQKEDLIADIRQDLAIAHDAFPEIPVQARIGVISAYLLFQKLTDRIEATPTADLLRERIRVPLHIKLSTLARATMKGLSMSIYRKNS = not soluble

* * *

Experiment: soluble on expression in E. coli; label from the status in PepcDB or PDB records
Measurement name: soluble on expression in E. coli

MRTILIDWFSDAVREYIFRNEAVHLAVSLVDRALPMFNINKMRFQLVGITSMRIAVKYEEIFPPILSNTRHSFDGAILYWKVRLHRRNAHTILDRIMLCTENELYKKDAECCQTPRAVADRFSFSTLPPI = not soluble
MMAIQASDMDISRFGSEIFRNSPRQSDLMIVSGTVTKKMAPRVRRIYDEMPYPKYVIAQGVCVIQGGPYNQGYSVVLGVDKVVPVDVYVPGCPPTPEALTNGIILLQKKIRGEADRLEHHHHHH = not soluble
MQSSKVVLLEPRTYSEAQGIADHLKGRRAVVINLQRMSTDQAVRIVDFLSGTVYAIGGDIQKIGPKTFMCTPENVDIVGAISELFGEEEETNIKRWLEHHHHHH = not soluble

* * *

Assay: soluble on expression in E. coli; label from the status in PepcDB or PDB records
Measurement name: soluble on expression in E. coli

MAKGYWIAQVDVRDSERYKDYVSTAKPAFERFGANFLARGGSVTELEGTARARNVVIEFPSVQHAIDCYNSPEYQAAAKIRQEVADAEMMIVEGI = soluble
MSLCRVLRVKHSSYYDWLSRDISEQQIHRNHCELLVKAAHSETHERYGVERLHAHLSEQGHNISPYMVRSIKEEYSIKCRRHKRFKVTTDSNHNKLVYPNVLDQEFDASRPNQAWASDITYIWTLEGWLYLAGVKDLYTKELVGYAINKRMTADLVCKALNMAIKNKQPSKGLVVHSDRGSQYCSHAYHKIIKQHQFTGSMSGKGNCFDNAPIESFWGILKNELVYHQDYKTRFAAIRDIIGYIELYYNQTRIQKGLGYKSPRQVWFDYYRQAAEGHHHHHH = soluble
MASPLRFDGRVVLVTGAGGGLGRAYALAFAERGALVVVNDLGGDFKGVGKGSSAADKVVEEIRRRGGKAVANYDSVEAGEKLVKTALDTFGRIDVVVNNAGILRDRSFSRISDEDWDIIQRVHLRGSFQVTRAAWDHMKKQNYGRIIMTASASGIYGNFGQANYSAAKLGLLGLANTLVIEGRKNNIHCNTIAPNAGSRMTETVMPEDLVEALKPEYVAPLVLWLCHESCEENGGLFEVGAGWIGKLRWERTLGAIVRKRNQPMTPEAVRDNWVKICDFSNASKPKSIQESTGGIIEVLHKIDSEGISQNHTGQVASAD = soluble

* * *

Assay: soluble on expression in E. coli; label from the status in PepcDB or PDB records
Measurement name: soluble on expression in E. coli

AAGTVFTTVEDLGSKILLTCSLNDSATEVTGHRWLKGGVVLKEDALPGQKTEFKVDSDDQWGEYSCVFLPEPMGTANIQLHGPPRVKAVKSSEHINEGETAMLVCKSESVPPVTDWAWYKITDSEDKALMNGSESRFFVSSSQGRSELHIENLNMEADPGQYRCNGTSSKGSDQAIITLRVRSH = soluble
MASNDPGNEVSSYSPTSPSYVKFFTQSNLEKLPKYKEKKAASAKQTAPNNSNGGSEEEITCALDYLIPPPMPKNQQYRAFGSIW = soluble

* * *

Assay: soluble on expression in E. coli; label from the status in PepcDB or PDB records
Measurement name: soluble on expression in E. coli

MKLSPREADGYFARPDAGKTGILIHGADAMRIALKRQQIIAALLGPGGEEEMRLTRMPGAELRKDAAQLLDAVKAVGFFPGPRVVFVEDCPETSAPAVLTALEDWQPGDAQIVVTAGQLKPSSKIRKAFETHPNAYAAGIYDDPPSRAEIERMLSAAGIRDVPPEPMTVLSDLARDLGPGDFAQTMEKLALYKLGDTAPLVLEDIAACAPRSTEAALDDVLNVVAEGKEGEIGPLIRRLQAQGTTPVSLCIGATRHFRTLYTCASAPGGPSQGIGALRPPVFGPRRDRILNQAQRWGARRLEAALTVLTDTDLALRSAGQSAPQMALVERAMIRLAWLSRSRLEHHHHHH = not soluble
MRLRLLSLPFILSLCAPLLPLNTLAAERIVTIGGDVTEIAYALGAGDEIVARDSTSQQPQAAQKLPDVGYMRTLNAEGILAMKPTMLLVSELAQPSLVLTQIASSGVNVVTVPGQTTPESVAMKINAVATALHQTEKGQKLIEDYQQRLAAVNKTPLPVKVLFVMSHGGLTPMAAGQNTAADAMIRAAGGSNAMQGFSRYRPLSQEGVIASAPDLLLITTDGVKALGSSENIWKLPGMALTPAGKHKRLLVVDDMALLGFGLETPQVLAQLREKMEQMQ = not soluble
